Tested on: SF-295 CNS
Assay: NCI tumour cell line growth inhibition, 48 h
READOUT: TGI

Output measured TGI for this item: CCOC(=O)CCCn1nnc(C(=O)OCC)c1C(=O)OCC
> 100 µM

Output measured TGI for this item: CN1CCc2cc3c(cc2C1O)OCO3 (centres undefined)
> 100 µM

Output measured TGI for this item: O=C1c2ccccc2C2CNC1(O)c1ccccc12 (centres undefined)
> 100 µM

Here's the next entry for you.
Output measured TGI for this item: COc1c2c(c3c(c1C1OC(C)[C@@H](C)O1)CC(C)(C)O3)C(=O)c1ccccc1C2=O (some centres undefined)
> 100 µM
